- ASSAY NAME: Chromatographic hydrophobicity index at pH 7.4 by fast gradient HPLC
- Type: physicochemical
- TEST CONDITIONS: buffer
Answer each item with its documented chromatographic logD.
Numbers only.

| CHEMICAL STRING | READING |
| --- | --- |
| Cc1nc2c(OCc3ccccc3)cccn2c1CC#N | 4.2 |
| Cc1cccc(C)c1COc1cccn2c(C)c(C)nc12 | 3.38 |
| Cc1cccc(C)c1CNc1nc(-n2ccccc2=O)cc2c(C)c(C)n(CCO)c12 | 3.12 |
| Cc1cccc(C)c1CNc1nc(N2CCNC2=O)cc2c(C)c(C)[nH]c12 | 2.54 |

Report chromatographic logD for every entry below.
1. Cc1cccc(C)c1CNc1cccn2c(C)nnc12
2. CCn1c(C)c(C)c2cc(-n3ccccc3=O)nc(NCc3c(C)cccc3C)c21
3. Cc1cccc(C)c1CNc1ccnc2c1cc(C)n2C
4. Cc1cccc(C)c1CNc1ncnc2c(C)c(C)[nH]c12
5. Cc1cccc(C)c1CNc1nccc2c1cc(C)n2C
6. Cc1cccc(C)c1CNc1ccnn2c(C)c(C)nc12

1: 3.5; 2: 3.9; 3: 3.28; 4: 2.53; 5: 2.04; 6: 3.53

Report chromatographic logD for every entry below.
1. Cc1cccc(C)c1CNc1nccc2c1nc(C)n2C
2. Cc1cccc(C)c1CNc1nc(-n2ccccc2=O)cc2c(C)c(C)[nH]c12

[2.09, 3.18]

###

- ASSAY NAME: Intrinsic clearance in rat liver microsomes
- Format: ADME, Microsome
QUANTITY: CLint scaled

Take a look at these entries with their results.
| MOLECULE | QUANTITY | READING |
| --- | --- | --- |
| Cc1c(C)n(C[C@H]2C[C@@H]2C)c2c(OCc3ccc(F)cc3)nncc12 | CLint scaled | 30 mL/min/kg |
| Cc1cccc(C)c1CNc1nccc2c1cc(C)n2C | CLint scaled | 28 mL/min/kg |
| Cc1cccc(C)c1CNc1nc(-c2ccccc2)cc2c(C)c(C)[nH]c12 | CLint scaled | 3.9 mL/min/kg |

Report CLint scaled for every entry below.
1. Cc1cccc(C)c1CNc1nc(N2CCNC2=O)cc2c(C)c(C)[nH]c12
2. Cc1cccc(C)c1CNc1nccn2c(C)c(C)cc12
3. Cc1cccc(C)c1CNc1nccc2c(C)c(C)[nH]c12
4. Cc1cccc(C)c1CNc1cc(C(=O)NCCO)cn2c(C)c(C)nc12 [LINAPRAZAN]

["6 mL/min/kg", "50 mL/min/kg", "50 mL/min/kg", "4 mL/min/kg"]

###

- ASSAY NAME: Dissociation constant, pKa of the compound
- Assay type: physicochemical
- TEST CONDITIONS: read-out: pKa
QUANTITY: pKa
Give bare numbers.

Take a look at these entries with their results.
| COMPOUND | pKa |
| --- | --- |
| Cc1[nH]c2c(NCc3ccccc3)nccc2c1C | 8.79 |
| Cc1cccc(C)c1CNc1cc(C(=O)NCCO)cn2c(C)c(C)nc12 [LINAPRAZAN] | 6.27 |
| Cc1nc2c(OCc3ccccc3)cccn2c1CC#N | 7.28 |
| Cc1cccc(C)c1CNc1nc(N2CCOCC2=O)cc2c(C)c(C)n(CCO)c12 | 5.4 |
| C=CCn1c(C)c(C)c2cc(-n3ccccc3=O)nc(NCc3c(C)cccc3C)c21 | 4 |

Report pKa for every entry below.
1. Cc1cccc(C)c1CNc1nccc2cc[nH]c12
2. Cc1cccc(C)c1COc1cccn2c(C)c(C)nc12
3. Cc1cccc(C)c1CNc1nccc2c(C)c[nH]c12
4. Cc1cccc(C)c1CNc1ccnc2c1nc(C)n2C

1. 8.63
2. 7.41
3. 8.71
4. 5.81

Report pKa for every entry below.
1. CCn1c(C)c(C)c2cc(-n3ccccc3=O)nc(NCc3c(C)cccc3C)c21
2. Cc1cccc(C)c1CNc1cccn2c(C)ncc12

1: 4; 2: 6.03
